Would you kindly list binding of second antibody for each of these binders?
target: T1, HBsAg AD serotype (Hepatitis B virus); assay: SPR epitope binning; competitor (1st, saturating Ab): HBC34
T1 construct: also called HBsAg serotype AD

Please review the entries below; each comes with its answer.
Binder	binding of second antibody
NOV3540 (antibody, human IgG1, kappa, V domains shown, Full human IgG1 (kappa) expressed in CHO cells) VH: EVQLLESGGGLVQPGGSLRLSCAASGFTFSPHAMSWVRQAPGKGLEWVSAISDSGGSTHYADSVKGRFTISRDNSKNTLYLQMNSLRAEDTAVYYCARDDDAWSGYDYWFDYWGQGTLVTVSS VL: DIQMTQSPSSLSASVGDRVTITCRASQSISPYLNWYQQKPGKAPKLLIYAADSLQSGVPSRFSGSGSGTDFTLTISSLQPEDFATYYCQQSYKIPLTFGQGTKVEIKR	111 % of its binding as first antibody
NOV3842 (antibody, human IgG1, lambda, V domains shown, Full human IgG1 (lambda) expressed in CHO cells) VH: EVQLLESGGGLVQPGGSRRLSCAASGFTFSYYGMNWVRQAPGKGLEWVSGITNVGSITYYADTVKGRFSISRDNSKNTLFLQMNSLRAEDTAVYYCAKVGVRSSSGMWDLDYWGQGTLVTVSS VL: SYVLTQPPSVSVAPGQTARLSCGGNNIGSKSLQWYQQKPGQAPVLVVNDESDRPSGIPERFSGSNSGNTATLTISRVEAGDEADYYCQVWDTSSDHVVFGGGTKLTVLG	115 % of its binding as first antibody

Turning now to a further record.
INPUT: Entry NOV3832 (antibody, human IgG1, lambda, V domains shown, Full human IgG1 (lambda) expressed in CHO cells) VH: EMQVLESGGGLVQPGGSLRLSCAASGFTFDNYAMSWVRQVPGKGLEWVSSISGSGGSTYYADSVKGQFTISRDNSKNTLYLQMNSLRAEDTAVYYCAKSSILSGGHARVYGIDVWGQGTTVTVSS VL: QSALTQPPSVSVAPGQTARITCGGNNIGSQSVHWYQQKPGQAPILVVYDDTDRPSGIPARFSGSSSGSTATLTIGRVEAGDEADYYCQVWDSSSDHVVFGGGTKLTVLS has what binding of second antibody?
OUTPUT: 176 % of its binding as first antibody
